- Test system: Pseudocercosporella herpotrichoides
- PROTOCOL DESCRIPTION: MIC by serial dilution, Example 55, Pseudocercosporella herpotrichoides
- Assay type: cell-based
- CONDITION PARAMETERS: Oculimacula yallundae; microtitre plates, 20° C., 6-8 days
MEASURED PARAMETER: MIC (µg/mL)
Dear colleague, please return just the value in µg/mL, with no unit written.

Kindly indicate its recorded MIC. Item: COc1ccc(-c2c(Cl)nc3ncnn3c2Cl)cc1OC
25

Kindly indicate its recorded MIC. Item: CCOc1ccc(-c2c(Cl)nc3ncnn3c2Cl)cc1
6.25

Kindly indicate its recorded MIC. Item: Clc1ccccc1-c1c(Cl)nc2ncnn2c1Cl
25

Kindly indicate its recorded MIC. Item: Clc1nc2ncnn2c(Cl)c1-c1cccs1
6.25

The measurements presented in this section are drawn from patent US5854252A.
